Where these numbers come from: patent US20110053897A1

pIC50 listing for selected molecules.
subject.of.test: Syk kinase (Homo sapiens)
Construct: purchased
protocol.description: Syk kinase inhibition, Caliper LabChip off-chip mobility-shift kinase assay
Format: biochemical
condition.details: read-out: Syk Enzyme IC50
# pIC50 is unitless: minus log10 of the molar concentration; print number only

{"smiles": "Cn1ccc2cc(Nc3cnccn3)nc(Nc3ccc(C4CCN(C5COC5)CC4)cc3)c2c1=O", "readout.number": 6.41}
{"smiles": "Cc1ccnc(Nc2cc3ccn(C)c(=O)c3c(NC[C@H]3CCCO3)n2)c1", "readout.number": 6.80}

Fill blank: measured pIC50 of the molecule COCCCc1cc2cc[nH]c(=O)c2c(Nc2ccc(N3CCO[C@H](C)C3)c(C)c2)n1 is ____.
5.65

----------
subject.of.test: Syk kinase (Homo sapiens, UniProt P43405)
Construct: purchased
protocol.description: Syk kinase inhibition, Caliper LabChip off-chip mobility-shift kinase assay
Assay type: biochemical
condition.details: read-out: Syk Enzyme IC50
Could you please mark Fulfilled for values of IC50 below 300 nM and Not fulfilled for values at or above it?

{"smiles": "CCNC(=O)c1ccc(Nc2nc(Nc3cnccn3)cc3ccn(C)c(=O)c23)cc1", "class.name": "Not fulfilled"}
{"smiles": "CC(=O)c1cc2cc[nH]c(=O)c2c(Nc2ccc(C3CCNCC3)c(C)c2)n1", "class.name": "Fulfilled"}
{"smiles": "Cc1ccnc(Nc2cc3cc[nH]c(=O)c3c(NC3CC3)n2)c1", "class.name": "Fulfilled"}

Here is another compound to look at.
Is IC50 strictly under 300 nM for the entry CCN1CCN(CCc2ccc(Nc3nc(Nc4ccc(C#N)cn4)cc4cc[nH]c(=O)c34)cc2)CC1 ?
Not fulfilled

----------
subject.of.test: Syk kinase (Homo sapiens)
Construct: purchased
protocol.description: Syk kinase inhibition, Caliper LabChip off-chip mobility-shift kinase assay
Assay type: biochemical
condition.details: Caliper LabChip assay; read-out: Syk Enzyme IC50
experimental.endpoint: IC50 (nM)
Respond numerically; units are nM and should not be typed.

Recorded results for 8 compounds are shown here.
{"compound": "Nc1ncc(-c2cc3ccn(CCO)c(=O)c3c(NC3(CO)CCC3)n2)cn1 [compound 903]", "IC50 (nM)": 26}
{"compound": "CC(C)n1ccc2cc(Nc3cnccn3)nc(N[C@H]3CC[C@@H](CO)C3)c2c1=O [compound 988]", "IC50 (nM)": 3}
{"compound": "Nc1ncc(-c2cc3ccn(C[C@H](O)CO)c(=O)c3c(NC3CCC3)n2)cn1 [compound 774]", "IC50 (nM)": 34}
{"compound": "COc1cc(Nc2cc3ccn(CCO)c(=O)c3c(NC(C)(C)C)n2)ncn1 [compound 735]", "IC50 (nM)": 50}
{"compound": "CC(C)(C)Nc1nc(Nc2cc(-c3ccncc3)ccn2)cc2ccn(CCO)c(=O)c12 [compound 842]", "IC50 (nM)": 51}
{"compound": "CC(C)n1ccc2cc(Nc3cnccn3)nc(NC(C)(C)C)c2c1=O [compound 822]", "IC50 (nM)": 165}
{"compound": "Cc1ccnc(Nc2cc3ccn(CCN4CCOCC4)c(=O)c3c(N[C@H]3CC[C@@H](O)CC3)n2)c1 [compound 993]", "IC50 (nM)": 67}
{"compound": "CCn1ccc2cc(Nc3cnccn3)nc(N[C@H]3CCC[C@H]3O)c2c1=O [compound 938]", "IC50 (nM)": 24}

Fill blank: measured IC50 of the compound CCn1ccc2cc(Nc3cc(C)ccn3)nc(NCC(O)C(F)(F)F)c2c1=O (stereo not shown) [compound 778] is ____.
413

Subsequent entry: Nc1ncc(-c2cc3ccn(CCO)c(=O)c3c(N[C@H]3CC[C@@H](O)CC3)n2)cn1 [compound 1028]
14
